Measured EC50 accompanies every entry in the list below.
# Tested on: HBV (HepG2.117 cell line, inducibly HBV producing)
# protocol: Anti-HBV activity: intracellular HBV DNA by real-time PCR in HepG2.117 cells after 3 days of treatment
# Type: cell-based, hepatitis B virus
# test-conditions: Hepatitis B virus, HepG2.117, 72 h, HepG2.117 cells, 3 days of treatment, intracellular HBV DNA by real-time PCR; mean value; read-out: EC50 (μM, mean value)
Answer format: numeric, µM implied, no suffix.

Worked examples, 3 compounds total:
COc1ccc(CN(CCO)c2nc3c(c(=O)[nH]2)CCN(C(=O)c2ccc(Cl)c(Cl)c2)C3)cc1 8.92
CC(C)NC(=O)c1ncc(-n2c(NC(C)C)nc3c(c2=O)C[C@@H](C)N(C(=O)c2ccc(Cl)c(C(F)(F)F)c2)C3)n1C 0.09
CC(C)Nc1nc2c(c(=O)n1-c1ccc(-c3ncc[nH]3)cc1)C[C@@H](C)N(C(=O)c1ccc(Cl)c(Cl)c1)C2 0.17

// moving on: another record for EC50
// EC50 value for "CSc1nc2c(c(=O)[nH]1)CCN(C(=O)c1ccc(Cl)c(Cl)c1)C2" : 16

---

# protocol: in vitro
# Type: cell-based
# test-conditions: human, HepG2 or HepG2.117 cells, 3-days incubation (unmarked values), ATPlite; mean value
measured-endpoint: CC50 at 3 days (µM)
Answer format: numeric, µM implied, no suffix.

Worked examples, 5 compounds total:
compound	units-label	meas-value
COc1ccc(CNc2nc3c(c(=O)n2C2CCOCC2)CCN(C(=O)c2ccc(Cl)c(Cl)c2)C3)cc1 [Compound C93]	µM	32
CNC(=O)c1ccc(-n2c(N[C@@H](C)c3cccnc3OC)nc3c(c2=O)C[C@@H](C)N(C(=O)c2ccc(Cl)c(Cl)c2)C3)cc1 (relative stereo) [Compound C286]	µM	29
CC(C)Nc1nc2c(c(=O)n1-c1ccc(-c3nccn3C)cc1Cl)C[C@@H](C)N(C(=O)c1ccc(Cl)c(Cl)c1)C2 [Compound C313]	µM	24.4
CNC(=O)c1ccc(-n2c(N3CC[C@@H]3c3ccccc3)nc3c(c2=O)C[C@@H](C)N(C(=O)c2ccc(Cl)c(Cl)c2)C3)cc1 (single isomer, unassigned) [Compound C348]	µM	31.2
CNC(=O)c1ccc(-n2c(N3CC4(CCC4)C3)nc3c(c2=O)C[C@@H](C)N(C(=O)c2ccc(Cl)c(Cl)c2)C3)cc1 [Compound C332]	µM	26

// CC50 at 3 days value for CNC(=O)c1ccc(-n2c(NC(C)C)nc3c(c2=O)C[C@@H](C)N(C(=O)c2ccc(Cl)c(Cl)c2)C3)c(C(F)(F)F)c1 (atropisomer, axis not shown) [Compound C340a] : 23.2

// CC50 at 3 days value for CC(C)Nc1nc2c(c(=O)n1-c1ccc(-c3nccn3C)cc1)CCN(C(=O)c1ccc(Cl)c(Cl)c1)C2 [Compound C174] : 6.8

// CC50 at 3 days value for COc1ccc(CNc2nc3c(c(=O)n2-c2ccccn2)CCN(C(=O)c2ccc(Cl)c(Cl)c2)C3)cc1 [Compound C78] : 41.8

// CC50 at 3 days value for COc1ccc(CNc2nc3c(c(=O)n2C2COC2)CCN(C(=O)c2ccc(Cl)c(Cl)c2)C3)cc1 [Compound C58] : 42.8

// CC50 at 3 days value for COc1ccc(CNc2nc3c(c(=O)n2-c2ccnn2C)CCN(C(=O)c2ccc(Cl)c(Cl)c2)C3)cc1 [Compound C108] : 26.5

// CC50 at 3 days value for CNC(=O)c1ccc(-n2c(N3CCC[C@@H]3C3CC3)nc3c(c2=O)C[C@@H](C)N(C(=O)c2ccc(Cl)c(Cl)c2)C3)cc1 (single isomer, unassigned) [Compound C352] : 27.5

// CC50 at 3 days value for Cc1nc(-c2ccc(-n3c(NC(C)C)nc4c(c3=O)C[C@@H](C)N(C(=O)c3ccc(Cl)c(Cl)c3)C4)cc2)c[nH]1 [Compound C244] : 22.9
